# assay-target: hDLG1 PDZ1 domain (human)
# procedure-details: NMR titration
Where no end group is shown, it is not given here.
property-label: Kd
// return the numeric value with its unit appended

Query Kd for SEKHFRETEV (not fully specified (C-terminus)) [C-terminally amidated Tax-1 10mer peptide (Tax-1mod)] 951 µM
